Ref: PubChem BioAssay (NCI)

- Tested on: OVCAR-4 ovarian
- PROTOCOL_DESCRIPTION: NCI-60 one-dose screen, 48 h (100 = growth as untreated, 0 = no growth, -100 = all killed)
- CONDITIONS: 10 µM unless noted
This is part of a sample that, as a whole, favours compounds with a hit. Of some 83,000 tested, about 20% had one in any assay.
The label depends only on growth: true (1) if it is at least 70%, false (0) if it is smaller.

Solved cases below.
COc1cc(/C(C#N)=C/c2nc3c(N4CCOCC4)nc(Cl)nc3n2C)cc(OC)c1OC ... false (0)
Cc1cccc2c(=O)c3c(sc12)c(NCCCNCCO)nc1ccccc13 ... false (0)

Item `C=C1C(=O)O[C@H]2[C@H]1CC/C(COC(=O)/C=C\C(=O)O)=C\CC[C@@]1(C)O[C@@H]21` with growth of 70% or above? true (1)

What do you have for `Cc1nc2ccccc2c(/C=C/c2ccc(F)cc2)c1C(N)=O` ? true (1)

What do you have for O=C(NN1C(=O)CSC1c1ccc(Cl)cc1)c1[nH]c2ccc(F)cc2c1-c1ccccc1 (stereo not given) ? false (0)

What do you have for `COc1ccc2sc(N(Cc3cccnc3)C(=O)c3ccc(C#N)cc3)nc2c1` ? true (1)

What do you have for `Nc1ccc(-c2nn3c(CCC(=O)c4nc5ncccc5[nH]4)nnc3s2)c(O)c1` ? true (1)

What do you have for CCN1C(=O)N(CC)C2C1NN=c1s/c(=C3\C(=O)N(C(C)C)c4ccccc43)c(=O)n12 (stereo not given) ? false (0)

What do you have for `O=C1Nc2ccccc2/C1=C/c1ccc[nH]1` ? false (0)
